target: DCN1 (DCUND1) protein PONY domain (Homo sapiens (Human)); assay: TR-FRET assay (binding to DCN-1, displacement of FAM-labeled probe); settings: 24 hr after treatment with compound; read-out: TR FRET IC50 24 hr
Sequence (Q96GG9 60-248): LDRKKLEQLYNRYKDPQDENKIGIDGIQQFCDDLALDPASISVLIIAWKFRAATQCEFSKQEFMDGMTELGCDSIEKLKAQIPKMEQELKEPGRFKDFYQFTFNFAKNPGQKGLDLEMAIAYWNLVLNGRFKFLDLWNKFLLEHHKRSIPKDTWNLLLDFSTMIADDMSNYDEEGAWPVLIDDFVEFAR
pIC50: −log10 of the molar value.
MEASURED_ENDPOINT: pIC50

C=C(C)C(=O)Nc1cccc([C@H]2c3c(C)nn(-c4ccccc4)c3N(CC)C(=O)[C@H]2NC(=O)c2cccc(C(F)(F)F)c2)c1 (racemic): < 5.52
C=C(CN1CC(O)C1)C(=O)NCc1cccc([C@@H]2c3cnn(-c4ccccc4)c3N(CC)C(=O)[C@H]2NC(=O)c2cccc(C(F)(F)F)c2)c1: ≥ 6.70
C=C(CN1CC2CC1CO2)C(=O)NCc1cccc([C@H]2c3c(C)nn(-c4ccccc4)c3N(CC)C(=O)[C@@H]2NC(=O)c2cccc(C(F)(F)F)c2)c1 (some centres unmarked): ≥ 6.70
Cc1nn(-c2ccccc2)c2c1[C@H](c1cccc(NC(=O)C3=CCC3)c1)[C@@H](NC(=O)c1cccc(C(F)(F)F)c1)C(=O)N2CCO (racemic): 5.52 to 6.00

Query: Give its pIC50 value. Item: C=C(C(=O)NCc1cccc([C@@H]2c3cnn(-c4ccccc4)c3N(CC)C(=O)[C@@H]2NC(=O)c2nccc(C(F)(F)F)n2)c1)C(C)N1CC2(COC2)C1 (some centres unmarked)
Result: 6.00 to 6.70

Query: Entry under review: C=C(C(=O)NCc1cccc([C@@H]2c3cnn(-c4ccccc4)c3N(CC)C(=O)[C@H]2NC(=O)c2nccc(C(F)(F)F)n2)c1)C(C)N1CCN(C2COC2)CC1 (some centres unmarked) . Reported pIC50?
Result: ≥ 6.70

Query: Report pIC50 for `C=C(CN1CC2(COC2)C1)C(=O)NCc1cccc([C@H]2c3c(C)nn(-c4ccccc4)c3N(CC)C(=O)[C@H]2NC(=O)c2cccc(C(F)(F)F)c2)c1` please.
Result: 6.00 to 6.70

Query: Look up pIC50 for this compound: `C=C(CN1CCOCC1)C(=O)NCc1cccc([C@@H]2c3cnn(-c4ccccc4)c3N(CC)C(=O)[C@H]2NC(=O)c2ccn(CC)n2)c1`
Result: ≥ 6.70

Query: pIC50 lookup needed for `C/C=C(\CN1CC2(COC2)C1)C(=O)N(C)Cc1cccc([C@@H]2c3cnn(-c4ccccc4)c3N(CC)C(=O)[C@H]2NC(=O)c2ccn(C(F)(F)F)n2)c1` , thanks.
Result: 5.52 to 6.00

Query: Given `CCN1C(=O)[C@@H](NC(=O)c2cccc(C(F)(F)F)c2)[C@H](c2cccc(NC(=O)/C=C/CN(C)C)n2)c2cnn(-c3ccccc3)c21` , state its recorded pIC50.
Result: ≥ 6.70

Query: Consider the compound C=C(C(=O)N(C)Cc1cccc([C@@H]2c3cnn(-c4ccccc4)c3N(CC)C(=O)[C@H]2NC(=O)c2ccn(C(F)(F)F)n2)c1)C(C)N(C)C1COC1 (some centres unmarked) and give its measured pIC50.
Result: ≥ 6.70
